# system.tested: imidazoline I2 binding site (Oryctolagus cuniculus)
# assay.overview: In vitro binding affinity determined against imidazoline receptor I-2 using rabbit kidney preparation
measured.metric: Ki

COC(=O)c1ccc2c(c1)N(C)CC(C1=NCCN1)O2 (stereo not drawn) :: 7 nM

I would be grateful if you could provide Ki for each of the following entries.
1. CN1CC(C2=NCCN2)Oc2ccc(Cl)cc21 (stereo not drawn)
2. CN1CC(C2=NCCN2)Oc2cc3ccccc3cc21 (stereo not drawn)

1: 173 nM; 2: 278 nM

----------
# system.tested: imidazoline I2 binding site (Oryctolagus cuniculus)
# assay.overview: In vitro binding affinity determined against imidazoline receptor I-2 using rabbit kidney preparation
measured.metric: log10 of Ki (log10 of the value in nM)
Note the log scale: values are log10 of Ki expressed in nM.

Look over these answered cases.
CCOCc1ccc2c(c1)N(C)CC(C1=NCCN1)O2 (stereo not drawn) :: 1.23
c1ccc2c(c1)NCC(C1=NCCN1)O2 (stereo not drawn) :: 1.71
CN1CC(C2=NCCN2)Oc2ccc(CO)cc21 (stereo not drawn) :: 2.00
COc1cc(=O)n2c3c(cccc13)OC(C1=NCCN1)C2 (stereo not drawn) :: 2.88
Cc1cccc2c1OC(C1=NCCN1)CN2C (stereo not drawn) :: 1.73
Cc1cccc2c1N(C)CC(C1=NCCN1)O2 (stereo not drawn) :: 2.67

Each molecule below has a reported value. Please supply its log10 of Ki.
1. Cc1ccc2c(c1)OC(C1=NCCN1)CN2C (stereo not drawn)
2. CCCC1(C2=NCCN2)CN(C)c2ccccc2O1 (stereo not drawn)
3. c1cc2c3c(c1)OC(C1=NCCN1)CN3CCCC2 (stereo not drawn)
4. c1cc2c3c(c1)OC(C1=NCCN1)CN3CC2 (stereo not drawn)

[1.67, 3.93, 2.81, 1.52]
